Numbers sourced from paper PMC9090415.

Target: P. falciparum apicoplast DNA polymerase (Pf-apPOL) (Plasmodium falciparum)
Test: Fluorescence-based high-throughput DNA polymerase assay (molecular beacon), primary screen and dose-response
Assay type: biochemical
Conditions: DRC-1; 180'; concentration 10
measure: % inhibition apPOL 180' (%)
Give the quantity in %, number only.

Examples with their reported % inhibition apPOL 180' follow.
[
  {
    "compound": "COc1ccc(CNC(=O)Cn2nc3c(c2NC(=O)Cc2cccs2)CSC3)cc1 [Molecule 55]",
    "target under test": "P. falciparum apicoplast DNA polymerase (Pf-apPOL) (Plasmodium falciparum)",
    "% inhibition apPOL 180' [%]": 5.391
  },
  {
    "compound": "O=c1[nH]c2ccc(Br)cc2c(-c2ccccc2)c1C1=NNC(c2ccco2)C1 (stereo not shown) [KU0045540]",
    "target under test": "P. falciparum apicoplast DNA polymerase (Pf-apPOL) (Plasmodium falciparum)",
    "% inhibition apPOL 180' [%]": 16.3913
  },
  {
    "compound": "COc1ccc(C=C2Oc3c(ccc4c3CN(c3ccc5c(c3)OCO5)CO4)C2=O)cc1OC [KU0199426]",
    "target under test": "P. falciparum apicoplast DNA polymerase (Pf-apPOL) (Plasmodium falciparum)",
    "% inhibition apPOL 180' [%]": 43.333
  }
]

Now let's try a different one.
Field request: % inhibition apPOL 180' | item: COCCN(CCOC)Cc1c(O)ccc2c1OC(=Cc1cc(Br)ccc1OC)C2=O [KU0198471] 28.8657

====

Below: a set of entries, each annotated with reported DNA Pol.
Molecular target: P. falciparum apicoplast DNA polymerase (Pf-apPOL) (Plasmodium falciparum, UniProt Q8ILY1)
Sequence (Q8ILY1 entry or part of it): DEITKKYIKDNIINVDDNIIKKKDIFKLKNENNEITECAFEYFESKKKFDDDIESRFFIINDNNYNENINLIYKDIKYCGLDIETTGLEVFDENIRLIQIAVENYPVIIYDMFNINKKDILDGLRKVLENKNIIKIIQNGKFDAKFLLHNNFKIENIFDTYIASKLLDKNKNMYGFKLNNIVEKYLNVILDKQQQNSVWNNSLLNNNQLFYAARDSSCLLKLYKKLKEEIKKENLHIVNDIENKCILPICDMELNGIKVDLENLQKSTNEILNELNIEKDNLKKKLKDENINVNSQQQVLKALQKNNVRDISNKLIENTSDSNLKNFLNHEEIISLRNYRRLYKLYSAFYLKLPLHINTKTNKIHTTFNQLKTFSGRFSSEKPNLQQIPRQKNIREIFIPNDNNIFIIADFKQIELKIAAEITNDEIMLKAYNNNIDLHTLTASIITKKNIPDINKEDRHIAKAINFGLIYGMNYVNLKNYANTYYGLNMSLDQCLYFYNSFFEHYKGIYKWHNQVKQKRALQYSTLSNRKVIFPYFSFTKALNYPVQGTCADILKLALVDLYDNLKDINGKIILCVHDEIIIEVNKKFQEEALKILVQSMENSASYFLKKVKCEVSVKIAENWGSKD
Assay: Fluorescence-based high-throughput DNA polymerase assay (molecular beacon), primary screen and dose-response
Type: biochemical
Conditions: primary screen value, "DNA Pol"; 90 min, 10 µM

// known answers, use as guide
[
  {
    "compound": "C=CCOc1c(Br)cc(Br)cc1/C=C1\\SC(=N)NC1=O [KU0051640]",
    "DNA Pol": 26
  },
  {
    "compound": "Cc1cccc(C2=N/C(=C\\c3ccc([N+](=O)[O-])o3)C(=O)O2)c1 [KU0058960]",
    "DNA Pol": 79
  },
  {
    "compound": "O=C(O)c1ccc(COc2cc([N+](=O)[O-])cc3cccnc23)cc1 [KU0058403]",
    "DNA Pol": 59
  }
]

Here's the next entry for you.
I am curious: what DNA Pol value has been reported for COC(=O)c1sc(-c2ccc(C(C)(C)C)cc2)cc1NC(=O)CCC(=O)O [Molecule 87] ? 96

====

Reported % inhibition apPOL 180' values follow for various compounds
Target: P. falciparum apicoplast DNA polymerase (Pf-apPOL) (Plasmodium falciparum, UniProt Q8ILY1)
Test: Fluorescence-based high-throughput DNA polymerase assay (molecular beacon), primary screen and dose-response
Assay type: biochemical
Conditions: DRC-2; concentration 80; 180'
Give the number; % is assumed, so skip it.

Below, 3 compounds whose answers are already recorded.
[
  {
    "compound": "COc1ccc(-c2occ(C(=O)O)c2C(=O)O)cc1 [KU0021536]",
    "value units": "%",
    "% inhibition apPOL 180'": 80
  },
  {
    "compound": "O=C(Cc1cccs1)N1CCN(c2nc(CN3CCOCC3)cs2)CC1 [Molecule 35]",
    "value units": "%",
    "% inhibition apPOL 180'": 70
  },
  {
    "compound": "CCOc1ccc2cc(C3=NN(C(=O)CCC(=O)O)C(c4ccc(C)cc4)C3)c(=O)[nH]c2c1 (centres unmarked) [KU0056200]",
    "value units": "%",
    "% inhibition apPOL 180'": 82
  }
]

Now look at this one.
# lookup: % inhibition apPOL 180' of COc1cc(/C=C2\C(=O)N(c3ccc(C(=O)O)cc3)N=C2C(F)(F)F)ccc1OCC(C)C [KU0069072] 82
